targetOrSystem: T1, PTH1 receptor (human, UniProt Q03431)
T1 chain: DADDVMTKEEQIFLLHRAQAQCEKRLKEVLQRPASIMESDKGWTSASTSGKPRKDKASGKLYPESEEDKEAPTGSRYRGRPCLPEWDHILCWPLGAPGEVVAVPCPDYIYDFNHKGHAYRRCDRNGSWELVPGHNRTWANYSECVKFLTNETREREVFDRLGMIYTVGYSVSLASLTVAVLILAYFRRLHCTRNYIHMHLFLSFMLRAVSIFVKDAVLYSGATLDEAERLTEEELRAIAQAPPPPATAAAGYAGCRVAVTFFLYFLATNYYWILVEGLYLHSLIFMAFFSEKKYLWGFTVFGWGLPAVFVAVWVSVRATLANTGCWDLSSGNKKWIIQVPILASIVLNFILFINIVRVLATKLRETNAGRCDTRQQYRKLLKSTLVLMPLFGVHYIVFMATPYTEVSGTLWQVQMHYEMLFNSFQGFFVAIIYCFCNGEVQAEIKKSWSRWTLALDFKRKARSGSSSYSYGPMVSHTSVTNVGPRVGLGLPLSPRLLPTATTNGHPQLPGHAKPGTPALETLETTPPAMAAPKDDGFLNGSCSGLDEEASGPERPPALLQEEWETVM
measurementNotes: competition, [125I]rPTH(1-34), 10 uM GTPgS, HEK293 membranes
observedProperty: pIC50
API: returns pIC50 as number; meaning -log10 of concentration in mol/L.

Quick check: pIC50 of DAAFRERARLLAALERRHWLNSYMHKLLVLDAP [TIP(7-39)] ?
8.30
